# Test target: SRBD subdomain of SARS-CoV-2 S protein (SARS-CoV-2, UniProt P0DTC2 319-541)
# Procedure summary: ELISA on coated SRBD
Metric: EC50 (ng/mL)
I only need the number, in ng/mL, no unit after it.

EC50 in this record for COV2-2103 (antibody, V domains shown) VH: EVQLVESGGGLVQPGGSLRLSCAASGFTFSRHWMTWVRQAPGKGLEWVANIKQDGSEKYYVDSVKGRLTISRDNAKNSLYLQMNSLRAEDTAVYYCARLGFYYGGADYWGQGTLVTVSS VL: NFMLTQPHSVSESPGKTVTISCTGSSGSIASNYVQWYQQRPGSAPTTVISEDNQRPSGVPDRFSGSIDSSSNSASLTISGLKTEDEADYYCQSYDGINRAWVFGGGTKLTVL : 1.1
